Each recorded value in this set is attributed to PubChem BioAssay (NCI).

System: SK-MEL-5 melanoma
Test: NCI-60 one-dose screen, 48 h (100 = growth as untreated, 0 = no growth, -100 = all killed)
Details: 10 µM unless noted
The panel holds about 83,000 compounds, 20% with a hit somewhere; the sample as a whole holds those more often.
measurement.type: growth (%)
State just the number; it will be interpreted in %.

Look over these answered cases.
molecule	observed.result
O=C1NC(=O)/C(=C\c2ccco2)S1	99.9
CC[C@H]1CN2CCc3cc(OC)c(OC)cc3C2C[C@@H]1CC1NCCc2cc(OC)c(OC)cc21 (some centres undefined)	-88.7
CC(=O)N1N=C(c2ccc(Nc3nc(NCCO)nc(NCCO)n3)cc2)CC1c1ccc(Cl)cc1 (centres undefined)	98.3
Cc1[nH]ccc2cc3nc4ccccc4c3cc12	37.8
C[C@@H]1CN(c2nc3c(cc2F)c(=O)c(C(=O)O)cn3C(C)(C)C)C[C@H](C)N1	92.4

Okay, next one:
In: I would be grateful if you could share the reported growth for COc1ccc(-c2c3c(N)nc(-c4ccncc4)nc3nc3c2c(C)nn3-c2ccccc2)cc1 .
Out: 72.6
